- assay_explanation: PK and Tmax after intraperitoneal administration
- Type: in vivo
- conditions_used: mouse, in vivo; plasma, 100 mg/kg IP, male C57BL/6 mice; read-out: TMax (converted)
measurement_name: Tmax (min)
Give the value in min but do not write min after it.

stdin: Item C=C(C)[C@@H]1CCC(C)=C[C@H]1c1c(O)cc(CCCCC)cc1OC [Compound 3] : provide Tmax
stdout: 30

###

- assay_explanation: PK and Tmax after intraperitoneal administration
- Assay type: in vivo
- conditions_used: mouse, in vivo, 100 mg/kg; IP, male C57BL/6 mice
measurement_name: Tmax (h)
Give the value in h but do not write h after it.

stdin: Item `C=C(C)[C@@H]1CCC(C)=C[C@H]1c1c(O)cc(CCCCC)cc1O` : provide Tmax
stdout: 1
